Entry source: patent US8598202B2

Target: FAAH (Homo sapiens)
Sequence (O00519 whole entry): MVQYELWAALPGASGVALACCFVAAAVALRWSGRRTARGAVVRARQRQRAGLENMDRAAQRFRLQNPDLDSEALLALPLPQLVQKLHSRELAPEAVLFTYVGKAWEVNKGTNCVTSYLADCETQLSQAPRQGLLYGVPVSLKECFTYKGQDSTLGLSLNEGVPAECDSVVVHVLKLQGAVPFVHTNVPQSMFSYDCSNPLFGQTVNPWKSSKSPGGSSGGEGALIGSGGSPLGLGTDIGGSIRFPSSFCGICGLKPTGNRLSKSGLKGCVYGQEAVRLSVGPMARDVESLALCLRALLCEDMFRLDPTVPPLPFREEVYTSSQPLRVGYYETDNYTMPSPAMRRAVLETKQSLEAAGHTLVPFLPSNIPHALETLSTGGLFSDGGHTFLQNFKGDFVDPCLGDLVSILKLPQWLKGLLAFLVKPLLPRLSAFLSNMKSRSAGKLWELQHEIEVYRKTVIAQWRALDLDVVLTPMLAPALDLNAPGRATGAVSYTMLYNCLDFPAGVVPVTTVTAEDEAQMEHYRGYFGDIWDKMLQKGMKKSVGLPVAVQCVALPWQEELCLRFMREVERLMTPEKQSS
Assay: Assay Method 1: FAAH assay, 3H-anandamide hydrolysis in homogenate of T84 cells or SK-N-MC cells transfected with human FAAH
Structures can show the parent of a compound that is named as a salt.
Assignment: determine reported pIC50 for the given compounds.
Hey, just a heads up that pIC50 is the negative log base 10 of the concentration in molar.

input: Could you tell me which pIC50 is on file for O[C@@H](CNc1cc(-c2ccc3sccc3c2)ncn1)c1ccccc1 [Example 100, trifluoroacetic acid salt] ?
output: 7.37

input: Then O=S(=O)(c1ccc(-c2cc(NC[C@H](O)c3ccccc3)ncn2)cc1)N1CCCC1 [Example 80] ?
output: 7.17

input: Then O[C@@H](CNc1cc(-c2ccc(C(F)(F)F)c(F)c2)ncn1)c1ccc(F)cc1 [Example 173] ?
output: 8.70

input: Then OC(CNc1cc(-c2ccc(C(F)(F)F)c(Cl)c2)ncn1)c1ccc(F)cc1 (centres unmarked) [Example 190] ?
output: 8.15

input: Then OC(CNc1cc(-c2ccc(OC(F)(F)F)cc2)ncn1)c1cccnc1 (centres unmarked) [Example 124] ?
output: 6.10

input: Then CCOc1cccc(-c2cc(NC[C@H](O)c3ccccc3)ncn2)c1 [Example 97] ?
output: 6.24

input: Then OC(CNc1cc(-c2ccc(C(F)(F)F)c(Cl)c2)ncn1)c1csc2ccccc12 (centres unmarked) [Example 201] ?
output: 6.77

input: Then CSc1cccc(-c2cc(NC[C@H](O)c3ccccc3)ncn2)c1 [Example 84, trifluoroacetic acid salt] ?
output: 7.36

###

Biological target: Rat FAAH-1 (Rattus norvegicus, UniProt P97612)
Sequence (P97612 whole entry): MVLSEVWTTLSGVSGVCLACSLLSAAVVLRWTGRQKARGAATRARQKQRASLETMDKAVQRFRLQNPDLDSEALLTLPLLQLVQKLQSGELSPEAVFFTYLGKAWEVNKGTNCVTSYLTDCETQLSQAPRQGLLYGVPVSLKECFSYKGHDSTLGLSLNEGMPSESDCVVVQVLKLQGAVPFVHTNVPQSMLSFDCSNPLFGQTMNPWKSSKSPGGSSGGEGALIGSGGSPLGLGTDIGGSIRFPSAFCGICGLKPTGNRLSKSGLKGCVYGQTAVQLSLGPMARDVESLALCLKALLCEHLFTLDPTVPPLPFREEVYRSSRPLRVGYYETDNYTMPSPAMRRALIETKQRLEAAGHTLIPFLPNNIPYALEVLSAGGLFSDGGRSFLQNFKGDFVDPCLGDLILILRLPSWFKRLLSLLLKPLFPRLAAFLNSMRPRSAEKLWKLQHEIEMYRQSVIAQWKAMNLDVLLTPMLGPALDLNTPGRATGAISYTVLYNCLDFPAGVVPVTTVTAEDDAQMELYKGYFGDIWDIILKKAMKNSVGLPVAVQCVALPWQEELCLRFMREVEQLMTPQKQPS
Assay: Assay Method 2: rat FAAH-1 assay, 3H-anandamide hydrolysis in homogenate of SK-N-MC cells transfected with rat FAAH
pIC50: −log10 of the molar value. Where a name gives a salt, the structure may show the parent alone.
Entries get a class label from measured pIC50. See ranges: A = under 6, B = from 6 up to 7, C = 7 and over

input: # bin lookup: classify OC(CNc1cc(-c2ccc(OC(F)(F)F)cc2)ncn1)c1cccnc1 (stereo not shown) by its pIC50
output: A

input: Then OC(CNc1cc(-c2ccc(C(F)(F)F)c(Cl)c2)ncn1)c1nccs1 (stereo not shown) ?
output: A

input: Then "Cc1cc(-c2cc(NC[C@H](O)c3ccccc3)ncn2)ccc1OC(C)C" ?
output: C

input: Then CC(=O)c1ccc(-c2cc(NCC(O)c3ccccc3)ncn2)s1 (stereo not shown) ?
output: A

input: Then O[C@@H](CNc1cc(-c2cc(F)cc(Cl)c2)ncn1)c1ccccc1 [Example 43, trifluoroacetic acid salt] ?
output: B

input: Then "O[C@@H](CNc1cc(-c2ccc(C(F)(C(F)(F)F)C(F)(F)F)cc2)ncn1)c1ccccc1" ?
output: A

input: Then "CC(C)c1nc(NC[C@H](O)c2ccccc2)cc(-c2ccc(Cl)c(Cl)c2)n1" ?
output: A

input: Then O=C(c1ccccc1)c1ccc(-c2cc(NC[C@H](O)c3ccccc3)ncn2)cc1 [Example 57, trifluoroacetic acid salt] ?
output: B

input: Then Oc1ccc(-c2cc(NCC(O)c3ccccc3)ncn2)cc1 (stereo not shown) ?
output: A

input: Then Cc1c(NC[C@H](O)c2ccccc2)ncnc1-c1ccc(C(F)(F)F)c(Cl)c1 [Example 47, trifluoroacetic acid salt] ?
output: B

input: Then COc1ccc(C(O)CNc2cc(-c3ccc(OC(F)(F)F)cc3)ncn2)cc1 (stereo not shown) ?
output: B

input: Then OC(CNc1cc(-c2ccc(C(F)(F)F)c(Cl)c2)ncn1)c1ccc(C(F)(F)F)c(F)c1 (stereo not shown) ?
output: C
